- MEASURED_ON: AgAbp1
- PROTOCOL_DETAILS: SPOT peptide array binding signal intensity (averaged, normalized) (arbitrary units (background-subtracted, floor 0; scale differs between SH3 domains)); higher = stronger binding of the SH3 domain to the peptide
ENDPOINT_LABEL: SPOT peptide array binding signal intensity

{"columns": ["BINDER", "VALUE_QUALIFIER", "READOUT_NUMBER"],
 "data": [
  ["HPRFVSPRIPSRIVK", "=", 258],
  ["NLDRSKISLPDFDDE", "=", 4.5],
  ["VPKEPAPAPPPEPDM", "≤", 0],
  ["KRRAPPPVPKKPSSR", "=", 5310],
  ["KNPRRQLQIPRQQPS", "=", 242],
  ["RSKRLFPVRPMATAH", "=", 39.5],
  ["ISPPASPPPEFDFSK", "≤", 0]
]}

Measured values drawn from the supplement of paper PMC4466140 for this set.
